METHOD SUMMARY: HepG2 cell viability effects, profiling panel, calcein-AM fluorescence, 48 h, basal (AID 1164); note: test concentration not given here
EXPERIMENTAL PARAMETERS: higher = more signal
QUANTITY: z-score
Numbers only.

Reference set (2 entries):
[N-]=[N+]=NCc1ccccc1C[C@@]1(C(=O)N2CCOCC2)N=C(c2ccc(OCCCO)cc2)O[C@@H]1c1ccccc1; -1.7
C[C@@H]1ON(c2ccc(C(=O)OC(C)(C)C)cc2)[C@H](c2ccc(O)cc2)[C@H]1C(=O)N1C(=O)OC[C@H]1Cc1ccccc1; -4.85

Ask | Specify reported z-score for the compound shown: O=C1O[C@H](c2ccccc2)[C@H](c2ccccc2)N2[C@H]1[C@@H](C(=O)O)[C@]1(C(=O)Nc3ccc(C#CC4=CCCCC4)cc31)[C@H]2c1ccc(O)cc1
Reply | 0.85

====

ASSAYED TARGET: Pro-neuregulin-1, membrane-bound isoform (Homo sapiens) (UniProt Q02297)
Sequence (Q02297 whole entry, looked up, canonical isoform): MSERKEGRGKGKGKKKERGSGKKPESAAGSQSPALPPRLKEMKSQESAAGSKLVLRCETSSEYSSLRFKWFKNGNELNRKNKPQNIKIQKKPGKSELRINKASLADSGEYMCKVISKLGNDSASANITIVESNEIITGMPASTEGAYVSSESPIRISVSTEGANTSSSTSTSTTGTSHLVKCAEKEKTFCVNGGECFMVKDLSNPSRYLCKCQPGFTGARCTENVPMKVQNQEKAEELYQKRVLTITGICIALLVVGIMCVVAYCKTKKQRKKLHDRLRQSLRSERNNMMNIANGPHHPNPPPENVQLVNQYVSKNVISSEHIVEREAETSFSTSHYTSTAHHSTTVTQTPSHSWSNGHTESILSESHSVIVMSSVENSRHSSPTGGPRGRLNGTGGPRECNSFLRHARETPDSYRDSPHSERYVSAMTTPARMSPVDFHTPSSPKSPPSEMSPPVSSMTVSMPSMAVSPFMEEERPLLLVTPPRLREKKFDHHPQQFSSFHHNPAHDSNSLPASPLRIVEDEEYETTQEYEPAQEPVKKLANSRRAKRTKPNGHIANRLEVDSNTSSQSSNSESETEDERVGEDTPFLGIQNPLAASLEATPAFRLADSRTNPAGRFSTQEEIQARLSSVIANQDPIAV
METHOD SUMMARY: NRG1 binders on small-molecule microarrays, primary screen, psychiatric disease protein project, biochemical, small-molecule microarray, fluorescence 635/667 (AID 1075);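 note: score combines 667 nm spot fluorescence with signal to noise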
EXPERIMENTAL PARAMETERS: NRG1 binding, 635 nm fluorescence, higher = more signal
QUANTITY: composite z-score
Give bare numbers.

Reference set (3 entries):
CCOC(=O)C[C@H]1[C@H](OC(=O)Cc2ccc3c(c2)OCO3)[C@@H](NC(=O)CC(C)C)c2cc(OCCCO)ccc2N1C(=O)Cc1ccc(OC)cc1; -0.308
Cc1cc(C)c(C(O)C2C=CC3C(=O)NC(=O)C3N2Nc2ccc(Cl)cc2Cl)c(C)c1 (stereo not given); 1.65
C=CCC(OC(C)=O)[C@@H]1[C@@H](N(Cc2ccc(-c3cccc(C(F)(F)F)c3)o2)C(=O)c2ccc(C)cc2)c2cc(OCCCO)ccc2N1C(=O)c1ccc2ccccc2c1 (stereo not given in full); -0.0678

Give composite z-score for all compounds that follow.
1. COc1ccc([Si](C)(C)[C@@H]2[C@@H](CCO)O[C@]3(C(=O)N(Cc4ccc(N5CCCCC5=O)cc4)c4ccccc43)[C@H]2C)cc1
2. N#Cc1ccc(NN2C(C(O)c3ccc(F)cc3)C=CC3C(=O)N(c4ccccc4)C(=O)C32)cc1 (stereo not given)
3. CN(C)C(=O)[C@@]1(CCS(=O)(=O)c2ccccc2)N=C(c2ccc(OCCCO)cc2)O[C@H]1c1ccccc1
4. COCCOC(=O)N1C(=O)[C@@]2(c3cc(C#CCCO)ccc31)[C@H](C(=O)Nc1nc3ccccc3s1)[C@H]1C(=O)O[C@H](c3ccccc3)[C@H](c3ccccc3)N1[C@@H]2c1ccccc1OCCO
5. COC(=O)[C@@]1(Cc2ccccc2)[C@@H]2C(=CC(=O)[C@H]2CC(=O)C(=O)N(C)C)CN1C(=O)c1ccccc1

Reply |
1: 0.919; 2: 1.4; 3: 2.13; 4: 0.95; 5: 1.98

====

METHOD SUMMARY: small-molecule microarray binders of probe aNog, primary screen, biochemical, biotinylated probe, 635/667 nm fluorescence (AID 1115);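 note: probe is biotinylated aNog protein used at 0.15 µg/mL for 1 h at 4 C; z-score combines 667 nm fluorescence of each spot with its signal to noise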
EXPERIMENTAL PARAMETERS: higher = more signal
Quick rule: composite z-score of at least 1 means label 1, below that means label 0.

Past entries and their recorded results:
C=C(COC)C(=O)CC[C@@H](OC(=O)c1cccnc1)c1ccc(OCCO)cc1; label 0
Cc1cc(C)c(C(O)C2C=CC3C(=O)NC(=O)C3N2Nc2ccc(Cl)cc2Cl)c(C)c1 (stereo not drawn); label 1
O=C1NC(=O)C2C1C=CC(C(O)c1c(F)cccc1Cl)N2Nc1ccc(Cl)cc1Cl (stereo not drawn); label 1
[N-]=[N+]=NCc1ccccc1C[C@]1(C(N)=O)N=C(c2ccc(OCCCO)cc2)O[C@H]1c1ccccc1; label 0
CCOC(=O)C[C@H]1[C@H](OC(=O)Cc2ccc3c(c2)OCO3)[C@@H](NC(=O)Cc2ccc(OC)cc2)c2cc(OCCCO)ccc2N1C(=O)c1ccc2ccccc2n1; label 0

Ask | Item CC(CO)N1C(=O)[C@@H]2[C@H]3C(=O)OCC=C[C@H]3OC23C=CCN(CCN2CCOCC2)C(=O)[C@@H]13 (stereo partly drawn) with composite z-score of 1 or above?
Reply | label 0

Ask | Item [N-]=[N+]=Nc1ccccc1[C@H]1OC(c2ccc(OCCCO)cc2)=N[C@@]1(CCS(=O)(=O)c1ccccc1)C(=O)NCCN1CCOCC1 with composite z-score of 1 or above?
Reply | label 1

Ask | Item O=C(NCC(F)(F)F)[C@@H]1c2ccccc2C(=O)N(Cc2ccccc2C(F)(F)F)[C@H]1c1ccc(CO)cc1 with composite z-score of 1 or above?
Reply | label 0

====

ASSAYED TARGET: Calmodulin-1 (Homo sapiens)
METHOD SUMMARY: CALM1 binders on microarrays, EGTA buffer, profiling panel, biochemical, small-molecule microarray, Cy5-labelled CALM1 (AID 1111);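 note: labelled calmodulin applied in Tris saline Tween buffer holding calcium plus EGTA and DTT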
EXPERIMENTAL PARAMETERS: Cy5-CALM1 binding fluorescence, higher = more signal
QUANTITY: composite z-score
Numbers only.

C=C[C@@H](OC)[C@H](OC(=O)Nc1ccc(SC)cc1)c1ccc(O)c(F)c1; -0.25

Give composite z-score for all compounds that follow.
1. COc1cccc(/C=C/C=O)c1
2. Cc1ccc(S[C@]2(C(=O)NCC(F)(F)F)CC(=O)N(Cc3ccccc3)[C@@H]2c2ccc(CO)cc2I)cc1

Reply |
0.0577
-0.0153

Give composite z-score for all compounds that follow.
1. CCOC(=O)[C@H]1[C@@H]2C(=O)N3CCC[C@H]3[C@H](O[Si](C(C)C)(C(C)C)C(C)C)[C@H]2C=C2CCN(S(=O)(=O)c3ccc(C)cc3)C[C@H]21
2. CCCCC(O)C1C=CC2C(=O)N(c3ccccc3)C(=O)C2N1Nc1ccc(C(C)C)cc1 (configuration not stated)
3. [N-]=[N+]=NCc1ccccc1[C@H]1OC(c2ccc(OCCCO)cc2)=N[C@@]1(CCS(=O)(=O)c1ccccc1)C(=O)NCC(O)CO (some centres not stated)
4. Cn1cccc1C(O)C1C=CC2C(=O)NC(=O)C2N1Nc1ccc(Cl)cc1Cl (configuration not stated)
5. O=C1NC(=O)C2C1C=CC(C(O)c1ccco1)N2Nc1ccccn1 (configuration not stated)
6. O=C1C2C=CC(C(O)c3ccccc3)N(Nc3ccccc3F)C2C(=O)N1c1ccccc1 (configuration not stated)
7. N#Cc1ccc(NN2C(C(O)c3ccc(F)cc3)C=CC3C(=O)N(c4ccccc4)C(=O)C32)cc1 (configuration not stated)

Reply |
0.791
1.25
1.42
2.24
-0.334
0.0824
2.39

====

METHOD SUMMARY: basal 3T3-L1 adipocyte mitochondrial potential changes, profiling panel, cell-based, JC-1 fluorescence, 3T3-L1 adipocytes, 24 h, 100 nL compound (AID 1168); note: test concentration not given here
EXPERIMENTAL PARAMETERS: JC-1 mitochondrial fluorescence, higher = more signal, called active from +8 up or from −8 down
I'd appreciate it if you could supply z-score values for the items below.
One number for each entry.

Reference set (5 entries):
COc1ccc(NC(=O)O[C@H]2[C@H](OC(=O)Nc3ccccc3)[C@H](OC(=O)Nc3ccccc3)[C@@H](OC)O[C@@H]2CO)cc1; -0.0233
C=CCC(OC(C)=O)[C@@H]1[C@@H](N(Cc2ccc(-c3ccccc3)cc2)C(=O)Cc2ccc(F)cc2)c2cc(OCCCO)ccc2N1C(=O)Cc1ccc(OC)cc1 (some centres not stated); -1.02
O=C1O[C@H](c2ccccc2)[C@H](c2ccccc2)N2[C@H]1[C@@H](C(=O)O)[C@]1(C(=O)Nc3ccc(C#CC4=CCCCC4)cc31)[C@H]2c1ccc(O)cc1; 0.0262
[N-]=[N+]=Nc1ccccc1[C@H]1OC(c2ccc(OCCCO)cc2)=N[C@@]1(Cc1ccccc1)C(=O)N1CCCCC1; 1.44
CCCCC(O)C1C=CC2C(=O)N(c3ccccc3)C(=O)C2N1Nc1ccc(C(C)C)cc1 (configuration not stated); -1.04

Give z-score for all compounds that follow.
1. Cc1ccc(S[C@]2(C(=O)NCC(F)(F)F)CC(=O)N(C3CCCCC3)[C@@H]2c2ccc(CO)cc2I)cc1
2. C=CC[C@]1(C(=O)NCCN2CCOCC2)N=C(c2ccc(OCCCO)cc2)O[C@H]1c1ccccc1CN=[N+]=[N-]

Reply |
-0.482
0.0141

====

I'd appreciate it if you could supply composite z-score values for the items below.
System: Lefty1
METHOD SUMMARY: Lefty1 binders on small-molecule microarrays, primary screen, biochemical, small-molecule microarray, 635/667 nm fluorescence (AID 1139)
EXPERIMENTAL PARAMETERS: small-molecule microarray binding, fluorescence 635/667; higher = more signal
One number for each entry.

Reference set (2 entries):
CN(C)C(=O)[C@@]1(CCS(=O)(=O)c2ccccc2)N=C(c2ccc(OCCCO)cc2)O[C@H]1c1ccccc1; -0.502
CCOC(=O)C1=CC[C@@H](c2ccccc2C(F)(F)F)N(S(=O)(=O)c2ccc(C)cc2)[C@H]1c1ccc(C#N)cc1; -0.0373

Give composite z-score for all molecules that follow.
1. COC(=O)[C@@]1(Cc2ccc(F)cc2)[C@H]2c3cc(C(=O)N(C)C)n(CCc4ccc(O)c(OC)c4)c3C[C@H]2CN1C(=O)c1ccccc1
2. CCC[C@@H]1C[C@@]1(CCC)[C@@H](NC(=O)OCc1ccccc1)c1ccc(-c2ccccc2)cc1
3. C=CCN1C(=O)[C@@]2(O[C@@H](CCn3cc([C@H](O)c4ccccc4)nn3)[C@H]([Si](C)(C)c3ccc(OC)cc3)[C@H]2C)c2cc(N3CCC3=O)ccc21
4. COC(=O)c1cn(C[C@@H](Cc2ccccc2)NC(=O)N[C@H](CO)CCc2oc(C(C)=O)c(C(=O)OC)c2C(=O)OC)nn1
5. COCCCNC(=O)[C@@]1(Cc2ccccc2N=[N+]=[N-])COC(c2ccc(OCCCO)cc2)=N1

Reply |
-0.244
-0.543
-0.127
1.17
-0.351

Entry source: PubChem BioAssay
